System: T47D breast cancer cell line
Test: Cytotoxicity MTT assay, T47D
Type: cell-based, human
Settings: 10 µM and 50 µM

chem_smiles	activity against T47D in two-dose screen
O=C(O)c1c[nH]c(/C=N/NC(=O)c2[nH]c3ccc(Br)cc3c2-c2ccccc2)c1	weak activity
O=C(N/N=C/c1ccc([N+](=O)[O-])[nH]1)c1[nH]c2ccc(Br)cc2c1-c1ccccc1	weak activity
O=C(N/N=C/c1c[nH]c(C(=O)N2CCOCC2)c1)c1[nH]c2ccc(Br)cc2c1-c1ccccc1	weak activity

###

Test system: TK-10
Assay: NCI60 five-dose screen
Type: cell-based
Conditions: Homo sapiens; TK-10, renal cancer; read-out: LC50 (the source's name)
experimental_endpoint: CC50 (µM)

chem_smiles	measurement_units	sign_qualifier	experimental_value
O=C(N/N=C/c1ccc([N+](=O)[O-])[nH]1)c1[nH]c2ccc(Br)cc2c1-c1ccccc1	µM	=	53.8
Cn1cccc1/C=N/NC(=O)c1[nH]c2ccc(Br)cc2c1-c1ccccc1	µM	>	100
CCOC(=O)c1cc(/C=N/NC(=O)c2[nH]c3ccc(Br)cc3c2-c2ccccc2)c[nH]1	µM	=	80.7
Cc1[nH]c(/C=N/NC(=O)c2[nH]c3ccc(Br)cc3c2-c2ccccc2)c(C)c1[N+](=O)[O-]	µM	=	41.2
O=C(N/N=C/c1[nH]ccc1Cl)c1[nH]c2ccc(Br)cc2c1-c1ccccc1	µM	=	49.5
O=C(N/N=C/c1cc(Br)c[nH]1)c1[nH]c2ccc(Br)cc2c1-c1ccccc1	µM	=	44.9
O=C(N/N=C/c1cc(Br)c(Br)[nH]1)c1[nH]c2ccc(Br)cc2c1-c1ccccc1	µM	=	49.5
O=C(N/N=C/c1cc(Cl)c[nH]1)c1[nH]c2ccc(Br)cc2c1-c1ccccc1	µM	=	83.2
CCc1ccc(/C=N/NC(=O)c2[nH]c3ccc(Br)cc3c2-c2ccccc2)[nH]1	µM	=	46.3
O=C(N/N=C/c1ccc(C(=O)N2CCOCC2)[nH]1)c1[nH]c2ccc(Br)cc2c1-c1ccccc1	µM	>	100
O=C(N/N=C/c1cc[nH]c1)c1[nH]c2ccc(Br)cc2c1-c1ccccc1	µM	=	58
CCOC(=O)c1ccc(/C=N/NC(=O)c2[nH]c3ccc(Br)cc3c2-c2ccccc2)[nH]1	µM	>	100
CCOC(=O)c1c[nH]c(/C=N/NC(=O)c2[nH]c3ccc(Br)cc3c2-c2ccccc2)c1	µM	=	46.2
Cc1cc(C)c(/C=N/NC(=O)c2[nH]c3ccc(Br)cc3c2-c2ccccc2)[nH]1	µM	=	45.2
CCc1cc[nH]c1/C=N/NC(=O)c1[nH]c2ccc(Br)cc2c1-c1ccccc1	µM	=	41.6
O=C(N/N=C/c1cc([N+](=O)[O-])c[nH]1)c1[nH]c2ccc(Br)cc2c1-c1ccccc1	µM	>	100
O=C(N/N=C/c1ccc[nH]1)c1[nH]c2ccc(Br)cc2c1-c1ccccc1	µM	=	37.1
CCc1c[nH]c(/C=N/NC(=O)c2[nH]c3ccc(Br)cc3c2-c2ccccc2)c1	µM	=	42.1

The reported measurements were obtained from paper PMC12203311.
